Measured log10 ED50 values are reported for all entries that follow.
# Tested on: histamine-induced bronchoconstriction
# ASSAY EXPLANATION: Effects on histamine-induced bronchoconstriction in anaesthetised guinea pigs
# Type: in vivo, guinea pig
# EXPERIMENTAL PARAMETERS: Cavia porcellus, iv; male anaesthetised guinea pigs; administered via cannulated left jugular vein immediately before histamine; read-out: ED50 (effective dose required to reduce the histamine-induced constriction in lung air volume by 50%)
Where a name gives a salt, the structure may show the parent alone.
A difference of one corresponds to tenfold ED50; all values are log10 with ED50 in mg/kg.

Previously resolved entries follow.
1. O=c1c2ccccc2nc2n(CCCCCN3CCCCC3)cnn12 [Example 12] ... 0.00
2. CCOC(=O)N1CCN(CCCCn2cnn3c(=O)c4cc(C)ccc4nc23)CC1 [Example 3, dihydrochloride] ... -2.10
3. O=c1c2ccccc2nc2n(CCCN3CCC(O)(c4ccccc4)CC3)cnn12 [Example 8] ... 0.30
4. O=c1c2ccccc2nc2n(CCCCN3CCCCC3)cnn12 [Example 24] ... -0.15

Now take the following molecule into account.
Reported log10 ED50 ( CCOC(=O)N1CCN(CCCn2cnn3c(=O)c4cc(C)ccc4nc23)CC1 [Example 34] ) = -2.00

Entry source: patent US4350695A
